Test Target: S207D LysRS(ΔN65) (human, UniProt Q15046 66-597, S207D)
Sequence (Q15046 66-597 S207D): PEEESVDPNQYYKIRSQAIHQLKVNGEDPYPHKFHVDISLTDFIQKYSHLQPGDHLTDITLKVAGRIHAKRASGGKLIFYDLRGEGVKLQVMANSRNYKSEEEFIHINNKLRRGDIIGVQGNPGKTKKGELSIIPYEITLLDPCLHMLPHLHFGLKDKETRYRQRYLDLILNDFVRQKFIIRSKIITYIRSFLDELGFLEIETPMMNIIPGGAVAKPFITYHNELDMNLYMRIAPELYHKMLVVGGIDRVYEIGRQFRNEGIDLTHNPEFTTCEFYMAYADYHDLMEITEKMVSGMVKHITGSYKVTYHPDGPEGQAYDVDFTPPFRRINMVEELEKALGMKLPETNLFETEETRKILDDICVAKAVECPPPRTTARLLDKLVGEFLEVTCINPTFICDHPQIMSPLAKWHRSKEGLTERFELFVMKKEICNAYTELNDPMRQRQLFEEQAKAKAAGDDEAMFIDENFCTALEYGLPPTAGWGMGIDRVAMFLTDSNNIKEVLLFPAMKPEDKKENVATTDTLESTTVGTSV
Assay Details: fluorescence anisotropy; 1 mM Mg2+; FA: 20 mM Tris-HCl pH 8, 15 mM NaCl, 35 mM KCl, 1 mM MgCl2, 20 nM RNA (30 nM per supplement), temperature not stated; XL-SHAPE: 20 mM HEPES pH 7.5, 60 mM NaCl
Assay Conditions: protein: recombinant; tags: His; chain copies: 2; label: 3' fluorescein (FTSC); tRNA fold
Measured Property: pKd
Field pKd (float): negative decimal logarithm of the concentration in molar.

Incoming: Consider the binder shown here: tRNALys3 (structured_RNA, unmodified transcript) RNA: GCCCGGAUAGCUCAGUCGGUAGAGCAUCAGACUUUUAAUCUGAGGGUCCAGGGUUCAAGUCCCUGUUCGGGCGCCA What is its recorded pKd?
Outgoing: 6.33
